growth inhibition: recorded values
assay: NCI Yeast Anticancer Drug Screen. Data for the mlh1 rad18 strain (AID 175); details: S. cerevisiae mlh1 rad18 strain growth inhibition; at 50.0 µM (retest, dose inferred, filed as 5.0); stronger effect = higher value
About 79,000 compounds went through this panel and 15% of them were active in at least one assay; those are over-represented in the sample as a whole.

COMPOUND	growth inhibition [%]
C(=C/c1ccccc1)/C=N/Nc1ccccc1	-79
CC(C)c1ccc2c(c1)CC[C@@H]1[C@](C)(CO)CCC[C@]21C	95
O=c1[nH]c(CN2CCCCC2)nn1-c1ccccc1	1
C=C1C(=O)[C@]23C[C@H]1CC[C@H]2[C@@]12CO[C@@H](O)[C@@H]1C(C)(C)[C@@H](O)C[C@@H]2OC3=O	11
Cc1ccc(OCC2CO2)c(Br)c1 (centres undefined)	84
O=C1NC(=O)C(c2ccccc2)(c2ccccc2)C2CC3c4[nH]c5ccccc5c4CCN3CC12 (centres undefined)	60
CC(C)(CN1CCCCC1)C(/C=C/c1ccc(Cl)c(Cl)c1)=N\NC(=O)N/N=C(/C=C/c1ccc(Cl)c(Cl)c1)C(C)(C)CN1CCCCC1	99
COC1CC2CCC(C)[C@](O)(O2)C(=O)C(=O)N2CCCCC2C(=O)OC(C(C)CC2CCC(O)C(OC)C2)CC(=O)C(C)C=C(C)C(OC(=O)CCCN2CCCC2)C(OC)C(=O)C(C)CC(C)/C=C/C=C/C=C\1C (some centres undefined)	98
COC(=O)CCCCC(=O)N(C(C)C)C(C)C	-5

###

assay: NCI Yeast Anticancer Drug Screen. Data for the mec2-1 strain (AID 157); details: S. cerevisiae mec2-1 strain, at 50.0 µM (retest, dose inferred, filed as 5.0)
The panel holds about 79,000 compounds, 15% with a hit somewhere; the sample as a whole holds those more often. Activity calls are given as the source filed them. Cut-off read from the data, not from the text of the source: active = growth inhibition above about 70%; inactive = the rest.
Outcomes: active, inactive

> print(dat)
                                    compound  group.label
 1  COc1cc2c(c(O)c1OC)-c1c(cc(OC)c(OC)c1OC)CC(C)C(C)C2 (stereo unspecified)     inactive
 2                   CCCCCCCCCCCC(=O)OCC(C)C     inactive
 3      O=CC(O)CN1CCCC1 (stereo unspecified)     inactive
 4        O=C(O)CNc1ccc2c(c1)Cc1cc(Br)ccc1-2       active
 5     O=S(=O)(N/N=C/c1ccc(Cl)cc1Cl)c1ccccc1     inactive
 6     O=S(=O)(Nc1ccccc1)c1ccccc1C#Cc1ccccc1       active
 7     O=c1c2ccccc2ncn1Cc1ccccc1[N+](=O)[O-]     inactive
 8  CCN(CC)c1ccc(NC(C(=O)c2ccccc2)c2ccc3c(c2)OCO3)cc1 (stereo unspecified)     inactive
 9  CCCCN(CCCC)/N=C\C1=C2NC(=O)/C(C)=C\C=C/C(OC)C(OC(N)=O)/C(C)=C/C(C)C(O)C(OC)CC(C)CC(=C(OC)C1=O)C2=O (stereo unspecified)       active
10  CNC(=O)N(C1=NCC(C)S1)c1ccc(C)c(C)c1 (stereo unspecified)       active
11  CCN(CC)CC(O)c1c(-c2ccccc2)c(-c2ccccc2)c2n1CCC2 (stereo unspecified)       active

###

experiment: NCI Yeast Anticancer Drug Screen. Data for the cln2 rad14 strain (AID 165);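 note: 0% = growth equal to vehicle treated cultures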; settings: S. cerevisiae cln2 rad14 strain, at 50.0 µM (retest, dose inferred, filed as 5.0), stronger effect = higher value
This is part of a sample that, as a whole, favours compounds with a hit. Of some 79,000 tested, about 15% had one in any assay.
PROPERTY: growth inhibition (%)

> print(dat)
                                    molecule  measured
 1  COc1ccc(C2Cc3cc(OC)ccc3C2=O)cc1 (stereo not given)        95
 2                N=Cc1cc([N+](=O)[O-])ccc1O        95
 3  CCCCCCCCCCOC1C(C(O)CNCCCN(C)C)OC2OC3(CCCCC3)OC21 (stereo not given)        97
 4  O=C(/C(O)=C(\O)C(=O)N(C1CCCCC1)C1CCCCC1)N(C1CCCCC1)C1CCCCC1        66
 5  ClC(Cl)(Cl)C(NCCN1CCOCC1)c1ccccc1 (stereo not given)        55
 6  O=C(O)CC1c2ccc3ccccc3c2CCC1c1ccccc1 (stereo not given)        99
 7  C1=Nc2ccccc2C=Nc2ccccc2C=Nc2ccccc2C=Nc2ccccc21.[Cl-].[Pt+2]        69
 8  CCCCCCN(S(=O)(=O)c1ccc([N+](=O)[O-])cc1)S(=O)(=O)c1ccc([N+](=O)[O-])cc1        55
 9  CCN1CCC(O)(/C=C/c2cccc(C)c2)C(C(=O)/C=C/c2cccc(C)c2)C1 (stereo not given)        93
10  CCC(=O)C(=O)CC1CC(c2ccco2)=Nc2ccccc2S1 (stereo not given)        97

###

test: NCI Yeast Anticancer Drug Screen. Data for the mlh1 rad18 strain (AID 175); settings: S. cerevisiae mlh1 rad18 strain growth inhibition; at 50.0 µM (retest, dose inferred, filed as 5.0)
Compounds without any hit were thinned out: in the full panel of roughly 79,000, 15% have a hit. The source made the active and inactive calls. Cut-off read from the data, not from the text of the source: active = growth inhibition above about 70%; inactive = the rest.
Outcomes: active, inactive

> print(dat)
                                   compound  group.label
1                         S=C(S)NCCN1CCNCC1     inactive
2  O=C(CC(O)(CC(=O)OCc1ccccc1)C(=O)OCc1ccccc1)OCc1ccccc1     inactive
3         C=CC(=O)Oc1ccccc1/C=C/C(=O)CCCCCC       active
4          CCCCCCCCCc1cc(O)c(O)cc1CCCCCCCCC     inactive
5  CCC(C)n1c(C)nc2c(N)cc(C(F)(F)F)cc21 (stereo unspecified)     inactive
6  O=C(N/C(=C\c1ccc2c(c1)OCO2)c1nc2ccccc2s1)c1ccccc1       active

###

experiment: NCI Yeast Anticancer Drug Screen. Data for the mec2-1 strain (AID 157); conditions: S. cerevisiae mec2-1 strain, at 50.0 µM (retest, dose inferred, filed as 5.0)
Compounds without any hit were thinned out: in the full panel of roughly 79,000, 15% have a hit. The source made the active and inactive calls. Cut-off read from the data, not from the text of the source: active = growth inhibition above about 70%; inactive = the rest.
Classes used: yes (1) for active, no (0) for inactive

> print(dat)
                                    molecule  group.label
 1  CC[N+](C)(CC)CCCOC(=O)c1ccccc1Oc1ccc(C)cc1       no (0)
 2  COC(=O)c1c2oc3c(C(=O)OC)cccc3nc-2cc(N)c1=O       no (0)
 3  O=C(CC(O)c1ccccc1)Sc1ccccc1 (stereo unspecified)       no (0)
 4  Fc1ccc(OCCC(Cn2ccnc2)c2ccc(Cl)cc2Cl)cc1 (stereo unspecified)      yes (1)
 5      O=C(/C=C/c1ccc2c(c1)OCO2)c1ccc(O)cc1       no (0)
 6         N=c1scc(-c2ccccc2)n1/N=C/c1cccnc1      yes (1)
 7         Cc1cc(N)cc(C)c1-c1c(N)cc(Br)cc1Br       no (0)
 8  O=C(SCCCc1ccccc1)c1cc([N+](=O)[O-])cc([N+](=O)[O-])c1      yes (1)
 9  COC1CCCCC1C(=O)C(C#N)C1CCCCC1C1CCCCC1 (stereo unspecified)       no (0)
10                    CC(=O)N(c1ccccc1)C(C)C       no (0)
11  COC(=O)[C@@H]1c2cc3c(c(O)c2[C@@H](OC)C[C@@]1(C)O)C(=O)c1c(O)cc2c(c1C3=O)OC1O[C@@]2(C)[C@H](O)[C@@H](N(C)C)[C@@H]1O      yes (1)
12  CCCCC(CC)CCC(C)OC(=O)C(O)c1ccccc1 (stereo unspecified)      yes (1)
13  O=C(CCCCN1CCN2c3ccccc3CCC2C1)c1ccccc1 (stereo unspecified)       no (0)
14  O=C(Nc1cc(Cl)ccc1Oc1cc(Cl)c(Cl)cc1S(=O)(=O)O)Nc1cc(Cl)ccc1Oc1cc(Cl)c(Cl)cc1S(=O)(=O)O      yes (1)
15  CC(C)c1ccc(O)c(O)c(=O)c1 (tested in a mixture with another compound)      yes (1)
16      CNC(=S)/N=c1/sc([N+](=O)[O-])c(C)n1C       no (0)
17  CCN(CC)c1ccc(/C=C2/C[N+](C)(C)C/C(=C/c3ccc(N(CC)CC)cc3)C2=O)cc1      yes (1)
18  CC(=O)OC1OC2C(NC(=O)OC(C)(C)C)C1CC2(OCc1ccccc1)OCc1ccccc1 (stereo unspecified)       no (0)
19  O=C(Nc1ccc(Br)cc1)c1c(-c2ccccc2)c2ccc(O)cc2oc1=O      yes (1)
20    ClC(Cl)=C1C(=C(Cl)Cl)C(Cl)(Cl)C1(Cl)Cl      yes (1)
21  CS(=O)(=O)OCCN(CCOS(C)(=O)=O)c1ccc(C=Nc2ccc(-c3csc(-c4ccc(Br)cc4)n3)cc2)c(Cl)c1       no (0)
